// data source = patent US20150329642A1

Target: T1, cMetECDHis (human, UniProt P08581 25-932, limits assumed, biotinylated in the cross-block ELISA of Example 17)
T1 construct: Expressed in HEK-293F cells; also called soluble cMetECDHis; biotinylated cMetECDHis
Assay: BLI (Octet); antibody captured, cMetECDHis in solution
value.type: pKd
FYI, pKd means -log10 of a concentration in mol per litre.

Input line: Need pKd of IgG1-1016-069 (antibody, V domains shown, also called clone 069; TH1016-069) VH: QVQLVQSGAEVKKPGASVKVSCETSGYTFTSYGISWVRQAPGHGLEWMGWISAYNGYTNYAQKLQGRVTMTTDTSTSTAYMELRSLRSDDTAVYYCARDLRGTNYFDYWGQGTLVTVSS VL: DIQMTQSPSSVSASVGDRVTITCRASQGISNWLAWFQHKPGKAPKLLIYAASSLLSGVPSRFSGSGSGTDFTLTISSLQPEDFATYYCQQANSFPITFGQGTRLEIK , thanks.
Output line: 8.90

Input line: Need pKd of IgG1-024 (antibody, V domains shown, also called TH1016-024; PC1016-024) VH: EVQLLESGGGLVQPGGSLRLSCVASGFTFSSYAMSWVRQAPGKGLEWVSAISGSSGGSTYYVDSVKGRFTISRANSKNTLYLQMNSLRAEDTAVYYCAKDLDRGWMGYFGYWGQGTLVTVSS VL: DIQMTQSPSSVSASVGDRVTITCRASQGISSWLAWYQHKPGKAPKLLIYAASSLQSGVPSRFSGSGSGTDFTLTISSLQPEDFATYYCQQANSFPTFGQGTRLEIK , thanks.
Output line: 8.80

Input line: Need pKd of anti-c-Met HuMab 006 (IgG1) (antibody, V domains shown, also called TH1016-006; PC1016-006) VH: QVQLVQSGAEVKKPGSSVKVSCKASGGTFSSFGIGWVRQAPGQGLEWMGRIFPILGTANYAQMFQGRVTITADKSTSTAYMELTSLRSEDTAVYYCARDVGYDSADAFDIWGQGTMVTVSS VL: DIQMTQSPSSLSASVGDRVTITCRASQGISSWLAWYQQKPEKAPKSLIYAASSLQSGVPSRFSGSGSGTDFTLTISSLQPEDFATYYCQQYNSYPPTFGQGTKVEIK , thanks.
Output line: 8.00

Input line: Need pKd of IgG1-1016-022 (antibody, V domains shown, also called TH1016-022; PC1016-022) VH: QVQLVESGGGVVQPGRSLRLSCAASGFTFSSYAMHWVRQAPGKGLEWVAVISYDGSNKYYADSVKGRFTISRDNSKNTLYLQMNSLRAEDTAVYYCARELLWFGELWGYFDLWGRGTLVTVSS VL: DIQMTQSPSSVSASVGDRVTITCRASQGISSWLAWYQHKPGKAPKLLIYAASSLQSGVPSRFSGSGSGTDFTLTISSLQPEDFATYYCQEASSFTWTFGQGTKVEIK , thanks.
Output line: 8.97

Input line: Need pKd of IgG1-1016-058 (antibody, V domains shown, also called IgG1-058; TH1016-058) VH: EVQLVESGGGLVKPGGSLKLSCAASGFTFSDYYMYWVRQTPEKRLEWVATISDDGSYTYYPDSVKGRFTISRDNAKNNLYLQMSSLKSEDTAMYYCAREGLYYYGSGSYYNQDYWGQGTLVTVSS VL: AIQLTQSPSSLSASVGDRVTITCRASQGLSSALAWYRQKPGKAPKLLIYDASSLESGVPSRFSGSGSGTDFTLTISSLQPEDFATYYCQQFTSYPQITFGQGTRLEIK , thanks.
Output line: 8.57

Input line: Need pKd of anti-c-Met HuMab 181 (IgG1) (antibody, V domains shown, also called TH1016-181; PC1016-181) VH: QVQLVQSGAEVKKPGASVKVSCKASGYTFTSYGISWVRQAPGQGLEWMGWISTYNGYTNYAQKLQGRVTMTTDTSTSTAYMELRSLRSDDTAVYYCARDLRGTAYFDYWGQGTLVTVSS VL: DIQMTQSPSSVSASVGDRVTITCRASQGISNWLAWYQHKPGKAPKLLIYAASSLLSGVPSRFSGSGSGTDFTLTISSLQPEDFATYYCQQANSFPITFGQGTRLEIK , thanks.
Output line: 8.65

Input line: Need pKd of anti-c-Met HuMab 096 (IgG1) (antibody, V domains shown, also called TH1016-096; PC1016-096) VH: EVQLVQSGAEVKKPGESLKISCKGSGYSFTSYWIGWVRQMPGKGLEWMGIIYPGDSDTRYSPSFQGQVTISADKSISTAYLQWSSLKASDTAMYYCARQEITGDFDYWGQGTLVTVSS VL: AIQLTQSPSSLSASVGDRVTITCRASQGISSALAWYQQKPGKAPNLLIYAASSLESGVPSRFSGSGSGTDFTLTISSLQPEDFATYYCQQFNSYPLTFGGGTKVEIK , thanks.
Output line: 8.59
